# Subject Of Test: Sodium-dependent serotonin transporter (Homo sapiens)
# Sequence (P31645 whole entry): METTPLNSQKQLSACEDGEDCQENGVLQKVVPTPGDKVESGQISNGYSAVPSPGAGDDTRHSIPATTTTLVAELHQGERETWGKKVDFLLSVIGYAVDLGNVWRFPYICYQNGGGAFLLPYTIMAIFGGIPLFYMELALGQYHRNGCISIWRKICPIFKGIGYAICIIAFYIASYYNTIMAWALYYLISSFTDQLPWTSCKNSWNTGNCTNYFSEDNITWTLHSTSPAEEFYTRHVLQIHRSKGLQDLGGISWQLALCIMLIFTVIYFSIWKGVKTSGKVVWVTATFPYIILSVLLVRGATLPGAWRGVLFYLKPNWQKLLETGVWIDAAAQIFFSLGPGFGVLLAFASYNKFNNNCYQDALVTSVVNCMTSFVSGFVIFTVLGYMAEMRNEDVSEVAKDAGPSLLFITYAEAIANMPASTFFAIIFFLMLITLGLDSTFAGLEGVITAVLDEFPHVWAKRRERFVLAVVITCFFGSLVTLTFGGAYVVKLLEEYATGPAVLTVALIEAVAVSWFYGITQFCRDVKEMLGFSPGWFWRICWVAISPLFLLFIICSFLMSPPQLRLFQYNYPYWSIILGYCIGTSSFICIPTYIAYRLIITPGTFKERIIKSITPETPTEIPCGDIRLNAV
# Experiment Notes: Displacement of [3H]citalopram from human SERT expressed in HEK293 cell membranes after 1 hr by liquid scintillation counting method
# Type: cell-based
Readout Type: Ki (nM)
Give bare numbers, in nM.

Solved entries (count: 3):
>>> endpoint_result("COc1ccc(Cl)c(CC2CCN(CCc3ccccc3)CC2)c1")
102
>>> endpoint_result("COc1ccc(Br)c(CC2CCN(CCc3ccccc3)CC2)c1")
66.4
>>> endpoint_result("COc1ccc(F)c(CC2CCN(CCc3ccccc3)CC2)c1")
274

# evaluate next
GET Ki | system: Sodium-dependent serotonin transporter (Homo sapiens) | item: "COc1cccc(CC2CCN(CCc3ccccc3)CC2)c1" 212
